Biological target: MlotiK1 CNB domain R348N mutant (Mesorhizobium japonicum, UniProt Q98GN8, R348N)
Sequence (Q98GN8 211-355 R348N limits assumed): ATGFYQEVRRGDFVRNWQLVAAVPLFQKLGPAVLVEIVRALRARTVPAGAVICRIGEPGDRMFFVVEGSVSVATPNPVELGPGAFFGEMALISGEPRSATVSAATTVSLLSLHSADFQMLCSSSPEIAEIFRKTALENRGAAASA
Experiment: 8-NBD cAMP fluorescence competition binding assay
Conditions: affinities (Kd), range stated over R348N, R348Q and R348K for cAMP and cGMP
measuredProperty: Kd

The compound identified as `Nc1nc2c(ncn2[C@@H]2O[C@@H]3COP(=O)(O)O[C@H]3[C@H]2O)c(=O)[nH]1` registered its Kd at 16 to 46 µM

* * *

molecular target: MlotiK1 CNB domain A352D mutant (Mesorhizobium japonicum, UniProt Q98GN8, A352D); assay: 8-NBD cAMP fluorescence competition binding assay
measuredProperty: pKd
Answers are plain numbers, as −log10 of the molar value.

The compound identified as `Nc1nc2c(ncn2[C@@H]2O[C@@H]3COP(=O)(O)O[C@H]3[C@H]2O)c(=O)[nH]1` registered its pKd at 6.07

* * *

target: MlotiK1 CNB domain V288L mutant (Mesorhizobium japonicum, UniProt Q98GN8, V288L); assay: 8-NBD cAMP fluorescence competition binding assay
measuredProperty: Kd (nM)
Answers are plain numbers, in nM.

The compound identified as Nc1nc2c(ncn2[C@@H]2O[C@@H]3COP(=O)(O)O[C@H]3[C@H]2O)c(=O)[nH]1 [cGMP] registered its Kd at 996

* * *

Molecular target: MlotiK1 CNB domain wild type (Mesorhizobium japonicum, UniProt Q98GN8)
Sequence (Q98GN8 211-355 limits assumed): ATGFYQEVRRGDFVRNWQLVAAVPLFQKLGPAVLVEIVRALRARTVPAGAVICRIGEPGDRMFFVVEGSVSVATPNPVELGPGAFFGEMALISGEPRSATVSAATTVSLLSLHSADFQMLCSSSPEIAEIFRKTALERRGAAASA
measuredProperty: pKd
Give bare numbers, as −log10 of the molar value.

>>> df
                                  structure  measuredproperty  measured
0  Nc1nc2c(ncn2[C@@H]2O[C@@H]3COP(=O)(O)O[C@H]3[C@H]2O)c(=O)[nH]1               pKd      5.76

The compound identified as `Nc1ncnc2c1nc(SCCNc1ccc([N+](=O)[O-])c3nonc13)n2[C@@H]1O[C@@H]2COP(=O)(O)O[C@H]2[C@H]1O` registered its pKd at 6.77

* * *

biological target: MlotiK1 CNB domain V288I mutant (Mesorhizobium japonicum, UniProt Q98GN8, V288I); assay: 8-NBD cAMP fluorescence competition binding assay
measuredProperty: pKd
Answers are plain numbers, as −log10 of the molar value.

The compound identified as Nc1nc2c(ncn2[C@@H]2O[C@@H]3COP(=O)(O)O[C@H]3[C@H]2O)c(=O)[nH]1 [cGMP] registered its pKd at 6.10

* * *

target: MlotiK1 CNB domain R348A mutant (Mesorhizobium japonicum, UniProt Q98GN8, R348A); experiment: 8-NBD cAMP fluorescence competition binding assay; settings: modified titration
measuredProperty: pKd
Numbers only, as −log10 of the molar value.

The compound identified as `Nc1nc2c(ncn2[C@@H]2O[C@@H]3COP(=O)(O)O[C@H]3[C@H]2O)c(=O)[nH]1` registered its pKd at 4.41

* * *

molecular target: MlotiK1 CNB domain M299Q mutant (Mesorhizobium japonicum, UniProt Q98GN8, M299Q); assay: 8-NBD cAMP fluorescence competition binding assay
measuredProperty: Kd
Your answer should be a number followed by the unit of measure.

The compound identified as `Nc1nc2c(ncn2[C@@H]2O[C@@H]3COP(=O)(O)O[C@H]3[C@H]2O)c(=O)[nH]1` registered its Kd at 11.6 µM

* * *

target: MlotiK1 CNB domain V288S/A352D mutant (Mesorhizobium japonicum, UniProt Q98GN8, A352D/V288S); experiment: 8-NBD cAMP fluorescence competition binding assay
measuredProperty: Kd (nM)
Numbers only, in nM.

The molecule identified as `Nc1nc2c(ncn2[C@@H]2O[C@@H]3COP(=O)(O)O[C@H]3[C@H]2O)c(=O)[nH]1` registered its Kd at 351

// provenance: paper PMC4076524
